Experiment: liver microsomal assay (metabolic stability)
Type: in vitro ADME, pig
Settings: pig liver microsomes, NADPH generating system, 35 min
Parameter: Liver microsomal stability: Amount remaining after 35 min (% of initial). Scope: all listed entries.

CCC(C)C(=O)N1CCC(NC(=O)Nc2ccc(OC(F)(F)F)cc2)CC1 (stereo not shown) [Compound 2385]	55 ± 3 % of initial

IN: Consider the compound shown here: O=C(Nc1ccc(OC(F)(F)F)cc1)N[C@H]1CC[C@H](Oc2ccc(C(=O)O)cc2)CC1 [Compound 1728] What is its recorded Liver microsomal stability: Amount remaining after 35 min (% of initial)?
OUT: 78 ± 3 % of initial

IN: Consider the compound shown here: CNc1nc(C)nc(N[C@H]2CCC[C@@H](C(=O)NCc3ccc(C#N)cc3C(F)(F)F)C2)n1 [Compound 2946] What is its recorded Liver microsomal stability: Amount remaining after 35 min (% of initial)?
OUT: 66 ± 1 % of initial

IN: Consider the compound shown here: O=C(O)CCCCCCCCCCCNC(=O)NC12CC3CC(CC(C3)C1)C2 [Compound 700] What is its recorded Liver microsomal stability: Amount remaining after 35 min (% of initial)?
OUT: 1 ± 0.1 % of initial

###

Assay: pharmacokinetic pilot, continuous infusion in one animal
Format: in vivo, pig
Conditions: pig, whole blood, intravenous, 0.1 mg/kg/h, time 255 minutes, read-out: Conc in blood 950
measurement label: concentration at 255 min (ng/mL)
The reply should be a number in ng/mL, with the unit left off.

IN: Consider the compound shown here: CCOCCOCCOCCCCCNC(=O)NC12CC3CC(CC(C3)C1)C2 [Compound 950] What is its recorded concentration at 255 min?
OUT: 224

###

Experiment: pharmacokinetic pilot, continuous infusion in one animal
Assay type: in vivo
Conditions: pig, whole blood, intravenous, 0.1 mg/kg/h, time 240 minutes (STOP INFUSION), read-out: Conc in blood 950
measurement label: concentration at 240 min (ng/mL)
The reply should be a number in ng/mL, with the unit left off.

IN: Consider the compound shown here: CCOCCOCCOCCCCCNC(=O)NC12CC3CC(CC(C3)C1)C2 What is its recorded concentration at 240 min?
OUT: 199
